System: formation of osteoclasts in co-culture of bone marrow cells and osteoblasts
Assay: Osteoclastogenesis inhibition via co-culture system (TRAP staining)
Assay type: cell-based, mice
Conditions: Mus musculus, Osteoclast, 168 h; 1 μM compound, 7 days co-culture, TRAP-positive multinucleated osteoclasts vs vehicle control
Exercise: state measured inhibition at 1 µM for each of the compounds provided.
Kindly format the answer as number then unit.

Entry under test: CNc1ccc([N+](=O)[O-])c(Nc2ccc(-c3csc(C)n3)cc2)n1 [Compound 132] . Its inhibition at 1 µM was 80%

// field: inhibition at 1 µM; key: CC(C)CNc1ccc([N+](=O)[O-])c(Nc2ccc(-c3csc(C4CCCCC4)n3)cc2)n1 [Compound 153] ; value = 78%

// inhibition at 1 µM lookup, compound = CC(=O)c1cccc(Nc2nc(NC(C)C)ccc2[N+](=O)[O-])c1 [Compound 97] , result: 80%

Per the records, this compound ( Nc1ccc(Nc2nc(NCc3ccncc3)ccc2[N+](=O)[O-])cc1 [Compound 66] ) has inhibition at 1 µM equal to 65%

CC(C)(C)Nc1ccc([N+](=O)[O-])c(Nc2ccc(-c3csc(C4CCCCC4)n3)cc2)n1 [Compound 154] yielded inhibition at 1 µM of 78%

Measured inhibition at 1 µM, N#Cc1ccc(Nc2nc(NCc3ccncc3)ccc2[N+](=O)[O-])cc1 [Compound 50] : 94%

Quick note, inhibition at 1 µM for Cc1nc(-c2ccc(Nc3nc(N4CCC(O)CC4)ccc3[N+](=O)[O-])cc2)cs1 [Compound 135] landed at 93%

Quick note, inhibition at 1 µM for O=[N+]([O-])c1ccc(N2CCNCC2)nc1Nc1ccc(N2CCOCC2)cc1 [Compound 120] landed at 63%

Note to self: inhibition at 1 µM recorded for Nc1ccc(Nc2nc(N3CCOCC3)ccc2[N+](=O)[O-])cc1 [Compound 64] was 65%

The value of inhibition at 1 µM measured for the compound Cc1nc(-c2ccc(Nc3nc(NCc4ccncc4)ccc3[N+](=O)[O-])cc2)cs1 [Compound 139] turned out to be 99%

The value of inhibition at 1 µM measured for the compound CCCCc1ccc(Nc2nc(NCCCn3ccnc3)ccc2[N+](=O)[O-])cc1 [Compound 56] turned out to be 99%

The value of inhibition at 1 µM measured for the compound NC1CCN(c2ccc([N+](=O)[O-])c(Nc3ccc(N4CCOCC4)cc3)n2)CC1 [Compound 121] turned out to be 89%

inhibition at 1 µM in this record for Cc1nc(-c2ccc(Nc3nc(N4CCNCC4)ccc3[N+](=O)[O-])cc2)cs1 [Compound 143] : 99%

Value of inhibition at 1 µM reported for the compound Cc1ccc(Nc2nc(N3CCC(N)CC3)ccc2[N+](=O)[O-])cc1 [Compound 13] is 92%

Item: CC(C)CNc1ccc([N+](=O)[O-])c(Nc2ccc(N)cc2)n1 [Compound 59] | inhibition at 1 µM: 81%

compound COc1ccc(Nc2nc(NCCCn3ccnc3)ccc2[N+](=O)[O-])cc1 [Compound 25] , inhibition at 1 µM observed: 98%
